Ref: PubChem BioAssay AID248

Record form. Attribute: T/C. Fill in for each entry.
- System: L1210 leukemia ip in BDF1 mice, survival T/C
- Test: NCI In Vivo Anticancer Drug Screen. Data for tumor model L1210 Leukemia (intraperitoneal) in B6D2F1 (BDF1) mice
- Recorded Conditions: endpoint: mean survival time; dose: 100.0 mg/kg/injection; schedule: Q04DX003 (ip); vehicle: other; higher = longer survival
Toxic doses and inconclusive results are not listed.

A selection of reference data follows.
O=C(c1ccccc1)c1ccc2ccc(F)cc2c1C(=O)O: 95 % of control
C1CCC2(CC1)SSC1(CCCCC1)S2: 95 % of control
OC1C=C(Br)C2CCC1CC2 (centres undefined): 96 % of control

Now take the following compound into account.
Read the entry `O=C(NC1CCCCC1)O/N=C/c1ccccn1` and write its reported T/C.
94 % of control

====

- Tested on: L1210 leukemia ip in BDF1 mice, survival T/C
- Test: NCI In Vivo Anticancer Drug Screen. Data for tumor model L1210 Leukemia (intraperitoneal) in B6D2F1 (BDF1) mice
- Recorded Conditions: endpoint: mean survival time; dose: 400.0 mg/kg/injection; schedule: Q04DX002 (ip); vehicle: saline; higher = longer survival
Inconclusive results and toxic doses are left out.
Record form. Attribute: T/C. Fill in for each entry.

Oc1cc(O)cc(O)c1: 100 % of control

Working through the 2 compounds below one at a time, give T/C for each.
1. COc1ccc(NC(=O)c2cc3ccccc3cc2OC(=O)NC(C)(C)C)cc1
2. CC(C)CCOC(=O)C1OC1(C)c1ccccc1 (stereo not drawn)

1. 97 % of control
2. 112 % of control

Working through the 5 compounds below one at a time, give T/C for each.
1. ClCCN(CCCl)c1ccc(Nc2nc(Nc3ccc(N(CCCl)CCCl)cc3)c3ccccc3n2)cc1
2. O=[N+]([O-])c1ccc(C2=NCCO2)cc1
3. CS/C(=C\C(=O)c1ccccc1)C(=O)O
4. CC(=O)OC1CC2(CO2)C2CC3OC3(C)C2C2OC(=O)C(C)C12 (stereo not drawn)
5. CCC#CC(=O)OCC

["95 % of control", "104 % of control", "100 % of control", "95 % of control", "105 % of control"]

Working through the 5 compounds below one at a time, give T/C for each.
1. Oc1c(Cl)cc(Cl)cc1/C=C1\C=Nc2ccccc21
2. O=c1[nH]c(SCc2ccccc2[N+](=O)[O-])nc2nc[nH]c12
3. O=C(COc1cc(Cl)c(Cl)cc1Cl)Nc1ccccc1
4. NC(=O)C(N)CO (stereo not drawn)
5. C#CCSC(C)C

102 % of control
97 % of control
103 % of control
111 % of control
93 % of control

====

- System: L1210 leukemia ip in BDF1 mice, survival T/C
- Test: NCI In Vivo Anticancer Drug Screen. Data for tumor model L1210 Leukemia (intraperitoneal) in B6D2F1 (BDF1) mice
- Recorded Conditions: endpoint: mean survival time; dose: 12.5 mg/kg/injection; schedule: Q04DX003 (ip); vehicle: saline with Tween-80; higher = longer survival
Toxic doses and inconclusive results are not listed.
Record form. Attribute: T/C. Fill in for each entry.

A selection of reference data follows.
CCCCN1C(=S)NC(C)(C)C=C1C: 95 % of control
CC1(C)OCC(CO)([N+](=O)[O-])CO1: 92 % of control
Cc1nnc(NN)nc1C: 103 % of control
Cc1cc(C)c(C(Br)C(Br)c2c(C)cc(C)cc2C)c(C)c1 (stereo unspecified): 98 % of control
C[N+](C)(Cc1ccccc1)CC(O)COc1ccccc1 (stereo unspecified): 92 % of control

Read the entry `C[Si](C)(C)Oc1cc(N=NNC2=CC(=O)c3ccccc3C2=O)c(O)c2ccccc12` and write its reported T/C.
93 % of control

====

- Tested on: L1210 leukemia ip in BDF1 mice, survival T/C
- Test: NCI In Vivo Anticancer Drug Screen. Data for tumor model L1210 Leukemia (intraperitoneal) in B6D2F1 (BDF1) mice
- Recorded Conditions: endpoint: mean survival time; dose: 200.0 mg/kg/injection; schedule: Q01DX009 (ip); vehicle: Klucel (hydroxypropylcellulose) (HPC); higher = longer survival
Inconclusive results and toxic doses are left out.
Observation Type: T/C

Cc1ccc(CCO)c(C)c1: 94 % of control

Working through the 7 compounds below one at a time, give T/C for each.
1. O=C(Nc1nccs1)Nc1ccccc1Cl
2. Cc1ccc(C(=O)C(Br)C(Br)c2ccccc2)cc1 (stereo not drawn)
3. CCOC(=O)c1ccc(NC(=O)Nc2cccc(F)c2)cc1
4. O=C(Nc1ccc(F)c([N+](=O)[O-])c1)Nc1cc(C(F)(F)F)ccc1Cl
5. Cc1cc(N=O)c(NO)cc1C
6. C=CCNC(=S)Nc1ccc(OC(=O)NC(C)(C)C)cc1
7. COc1ccc(NC(=O)C(Br)C(Br)c2ccccc2)c(Cl)c1 (stereo not drawn)

91 % of control
89 % of control
100 % of control
90 % of control
103 % of control
95 % of control
97 % of control

====

- System: L1210 leukemia ip in BDF1 mice, survival T/C
- Test: NCI In Vivo Anticancer Drug Screen. Data for tumor model L1210 Leukemia (intraperitoneal) in B6D2F1 (BDF1) mice
- Recorded Conditions: endpoint: mean survival time; dose: 200.0 mg/kg/injection; schedule: Q04DX003 (ip); vehicle: saline with Tween-80; higher = longer survival
Toxic doses and inconclusive results are not listed.
Observation Type: T/C

A selection of reference data follows.
CNCCOc1ccccc1: 93 % of control
Nc1ncnc2c(C3OC(CO)C(O)C3O)[nH]nc12 (centres undefined): 111 % of control
CC(=O)c1cccc(NC(=O)Oc2ccc(-c3ccccc3)cc2)c1: 92 % of control
CCCCCC(CN(C)C)C(/C=C/c1ccccc1Cl)OC(=O)c1ccc([N+](=O)[O-])cc1 (centres undefined): 92 % of control
O=Cc1ccc(N(c2ccc(C=O)cc2)c2ccc(C=O)cc2)cc1: 89 % of control
O=C(C(Sc1ccccc1)=P(c1ccccc1)(c1ccccc1)c1ccccc1)c1ccccc1: 90 % of control
O=C(O)c1ccc(Cl)nc1: 103 % of control
Cc1cc2c(cc1C)C(=O)CCC2: 98 % of control

Working through the 6 compounds below one at a time, give T/C for each.
1. Cc1cnc(Cl)c(Br)c1
2. O=C1CC(N2C(=O)C3C4CCC(O4)C3C2=O)C(=O)N1 (centres undefined)
3. CC/C(C)=C(/C(=O)O)c1ccccc1
4. O=C1C2CCCC1C(c1ccccc1)C=C2c1ccc(O)cc1 (centres undefined)
5. Cc1cc2oc(C)[n+](Cc3ccccc3)c2cc1C
6. O=c1cc(CNC23CC4CC(CC(C4)C2)C3)[nH]c(=O)[nH]1

1. 102 % of control
2. 108 % of control
3. 94 % of control
4. 96 % of control
5. 95 % of control
6. 96 % of control

Working through the 4 compounds below one at a time, give T/C for each.
1. NC(=O)OCCOCCOC(N)=O
2. CCOC(=O)C(=[N+]=[N-])S(=O)(=O)c1ccccc1
3. Cc1cc2c(cc1C)/C(=N\O)CCCC2
4. CC1=Nc2ccccc2N=C(C)C1

1: 98 % of control; 2: 101 % of control; 3: 92 % of control; 4: 96 % of control

Read the entry `Oc1cc2c(O)cccc2c2ccccc12` and write its reported T/C.
90 % of control

====

Record form. Attribute: T/C. Fill in for each entry.
- Tested on: L1210 leukemia ip in BDF1 mice, survival T/C
- Test: NCI In Vivo Anticancer Drug Screen. Data for tumor model L1210 Leukemia (intraperitoneal) in B6D2F1 (BDF1) mice
- Recorded Conditions: endpoint: mean survival time; dose: 400.0 mg/kg/injection; schedule: Q01DX009 (ip); vehicle: saline; higher = longer survival
Toxic doses and inconclusive results are not listed.

A selection of reference data follows.
COC(=O)CCC(C)[N+](=O)[O-] (stereo unspecified): 98 % of control
Cc1ccc(CO)cc1: 92 % of control
COC(=O)C(N)CSCSC (stereo unspecified): 101 % of control
CS(=O)(=O)N(CC(=O)O)Cc1ccccc1: 97 % of control
O=C(N/N=C/c1ccccc1)c1ccccc1: 96 % of control

Working through the 3 molecules below one at a time, give T/C for each.
1. C/C(=C\Cl)CN1C(=O)c2ccccc2C1=O
2. OC1CCNc2ccccc21 (stereo unspecified)
3. COc1cc(I)c(CC(=O)O)cc1OC

102 % of control
112 % of control
96 % of control

====

- Tested on: L1210 leukemia ip in BDF1 mice, survival T/C
- Test: NCI In Vivo Anticancer Drug Screen. Data for tumor model L1210 Leukemia (intraperitoneal) in B6D2F1 (BDF1) mice
- Recorded Conditions: endpoint: mean survival time; dose: 400.0 mg/kg/injection; schedule: Q04DX003 (ip); vehicle: saline with Tween-80; higher = longer survival
Toxic doses and inconclusive results are not listed.
Observation Type: T/C

A selection of reference data follows.
O=N[C@@H]1CCC[C@H](Cl)C1: 95 % of control
CCOC(=O)C1C=CCCC1 (stereo not drawn): 94 % of control
C(/C=C/C=C/Nc1ccccc1)=Nc1ccccc1: 92 % of control
CCOC(=O)C(Nc1ccccc1)C(=O)OCC: 100 % of control
COc1ccc(C(CCl)(CCl)c2ccc(OC)c(C)c2)cc1C: 92 % of control

Working through the 6 compounds below one at a time, give T/C for each.
1. CC(=O)Nc1ccc2c(c1)C(=O)c1cc(NC(C)=O)ccc1-2
2. Cc1ccc(O)cn1
3. CN(C)C(=O)c1cccc(NC(=O)Oc2ccccc2)c1
4. CCOC(=O)C(CC)C1=CCCCC1 (stereo not drawn)
5. COc1cc(N=Nc2ccccc2C(=O)O)ccc1O
6. CCOC(=O)C(C)(C)CN(CC(C)(C)C(=O)OCC)c1ccccc1

1: 89 % of control; 2: 103 % of control; 3: 102 % of control; 4: 91 % of control; 5: 101 % of control; 6: 104 % of control

Working through the 2 compounds below one at a time, give T/C for each.
1. Cc1ccc(S(=O)(=O)Oc2ccc3ccccc3c2)cc1
2. CC(C)NC(=O)C1C2C=CC(CC2)C1C(=O)NC(C)C (stereo not drawn)

86 % of control
104 % of control
